assay: Cytotoxicity against African green monkey Vero cells assessed as reduction in cell viability measured after 3 days by MTT assay; format: toxicity, cell-based; settings: chlorocebus sabaeus, time 3 day
measuredQuantity: CC50 at 72 h (µM)
Please respond with the number in µM and leave the unit unwritten.

Input line: Using the record for COc1cc(-c2c3c(nc4[nH]c(=O)[nH]c(=O)c24)-c2ccccc2C3=O)cc(I)c1OC , report its CC50 at 72 h.
Output line: 2.22

Input line: Item: O=C1C2=C(Nc3[nH]c(=O)[nH]c(=O)c3C2c2ccc(O)c(O)c2)c2ccccc21 (stereo not given)
Output line: 7.03

Input line: Item: COc1ccc(C2C3=C(Nc4[nH]c(=O)[nH]c(=O)c42)c2ccccc2C3=O)cc1O (stereo not given)
Output line: 8.99

Input line: Item: COc1ccc(C2C3=C(Nc4[nH]c(=O)[nH]c(=O)c42)c2ccccc2C3=O)cc1F (stereo not given)
Output line: 7.16

Input line: Item: O=C1C2=C(Nc3[nH]c(=O)[nH]c(=O)c3C2c2ccc(O)cc2)c2ccccc21 (stereo not given)
Output line: 3.95

###

assay: Cytotoxicity against African green monkey Vero cells assessed as reduction in cell viability measured after 3 days by MTT assay; assay type: toxicity, cell-based; conditions: chlorocebus sabaeus, time 3 day
Class boundaries, taken from values of CC50 at 72 h, are as follows: class 0: < 2000 nM; class 1: ≥ 2000 nM and < 6000 nM; class 2: ≥ 6000 nM

Input line: Category of COc1cc(-c2c3c(nc4[nH]c(=O)[nH]c(=O)c24)-c2ccccc2C3=O)cc(Cl)c1OC , please.
Output line: class 0

Input line: Item: COc1ccc(-c2c3c(nc4[nH]c(=O)[nH]c(=O)c24)-c2ccccc2C3=O)cc1OC
Output line: class 0

Input line: Item: COc1cc(C2C3=C(Nc4[nH]c(=O)[nH]c(=O)c42)c2ccccc2C3=O)cc(I)c1OC (stereo not drawn)
Output line: class 0

Input line: Item: COc1ccc(-c2c3c(nc4[nH]c(=O)[nH]c(=O)c24)-c2ccccc2C3=O)cc1Br
Output line: class 2

Input line: Item: O=C1C2=C(Nc3[nH]c(=O)[nH]c(=O)c3C2c2cccc(O)c2)c2ccccc21 (stereo not drawn)
Output line: class 2

Input line: Item: COc1cc(C2C3=C(Nc4[nH]c(=O)[nH]c(=O)c42)c2ccccc2C3=O)cc(Cl)c1OC (stereo not drawn)
Output line: class 0

Input line: Item: O=C1C2=C(Nc3[nH]c(=O)[nH]c(=O)c3C2c2cccc(Br)c2)c2ccccc21 (stereo not drawn)
Output line: class 2

Input line: Item: COc1cc(C2C3=C(Nc4[nH]c(=O)[nH]c(=O)c42)c2ccccc2C3=O)cc(Br)c1OC (stereo not drawn)
Output line: class 0

Input line: Item: COc1cc(C2C3=C(Nc4[nH]c(=O)[nH]c(=O)c42)c2ccccc2C3=O)cc(OC)c1OC (stereo not drawn)
Output line: class 1

Input line: Item: O=C1C(O)=C([C@H]2CC[C@H](c3ccc(Cl)cc3)CC2)C(=O)c2ccccc21 [ATOVAQUONE]
Output line: class 2

Input line: Item: COc1ccc(C2C3=C(Nc4[nH]c(=O)[nH]c(=O)c42)c2ccccc2C3=O)cc1C (stereo not drawn)
Output line: class 1

Input line: Item: COc1cc(-c2c3c(nc4[nH]c(=O)[nH]c(=O)c24)-c2ccccc2C3=O)cc(Br)c1OC
Output line: class 1

Input line: Item: COc1ccc(C2C3=C(Nc4[nH]c(=O)[nH]c(=O)c42)c2ccccc2C3=O)cc1OC (stereo not drawn)
Output line: class 2

Input line: Item: COc1ccc(C2C3=C(Nc4[nH]c(=O)[nH]c(=O)c42)c2ccccc2C3=O)cc1Br (stereo not drawn)
Output line: class 0

Input line: Item: COc1ccc(-c2c3c(nc4[nH]c(=O)[nH]c(=O)c24)-c2ccccc2C3=O)cc1F
Output line: class 1
